# Binding Score annotations
# assayed system: T1, Soluble CTLA-4-Ig (human, UniProt P16410 36-161, FITC-conjugated in the two-colour FACS assays; unlabelled and detected with FITC goat anti-human IgG in the concentration-dependent assay)
# T1 construct: extracellular domain; Bought from R&D Systems; also called sCTLA-4-Ig; CTLA-4-Ig Fc; not shown: Fc portion of human IgG1
# T1 sequence (P16410 36-161): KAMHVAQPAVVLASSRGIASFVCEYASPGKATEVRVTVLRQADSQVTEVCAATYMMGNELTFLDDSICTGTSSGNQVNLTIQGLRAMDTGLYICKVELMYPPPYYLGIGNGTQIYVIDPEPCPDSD
# protocol description: two-colour FACS profile on transfected cells; score of preference for CTLA-4-Ig over CD28-Ig vs WT hB7-1
Would you mind answering with just the numeric figure?

INSERT INTO results (binder, measured_quantity, measured_number) VALUES
  ('Round 2 CTLA4BP 5x2-b7 (ligand) VIHVTKEVKEVATLSCGHNVSVEELAQTRIHWQKEKKMVLTMMSGDMNIWPEYKNRTIFDITNNLSIVILALRPSDEGTYECVVLKYEKDAFKREHLAEVTLSVKADFPTPSITDFEIPPSNIRRIICSTSGGFPEPHLSWLENGEELNAINTTVSQDPGTELYTVSSKLDFNMTANHSFVCLIKYGHLRVNQTFNWNTPKQEHFPDNLLPSWAITLISANGIFVICCLTYCFAPRCRERRRNERLRRESVRPV', 'Binding Score', 1);

Now take the following binder into account.
Challenge: Read off the recorded Binding Score for Round 2 CTLA4BP 5x1-f1 (ligand) VIHVTKEVKEVATLSCGLNVSVEELAQTRIYWQKEKKMVLTMMSGDMNIWPEHKNRTIFDITNNLSIVILALRPSDEGTYECVVLKYEKDAFKREHLAEVTLSVKADFPTPSITDFEIPPSNIRRIICSTSGGFPEPHLFWLENGEELNAINTTASQDPETELYTVSSKLDFNMTANHSFVCLIKYGHLRVNQTFNWNTPKQEHFPDNLLPSWAITLISVNGIFVICCLTYCFAPRCRERRRNETLRRESVRPV
Response given: 1

These measurements were taken from patent US20050154189A1.
